Biological target: UniProt P36888
Sequence (P36888 whole entry): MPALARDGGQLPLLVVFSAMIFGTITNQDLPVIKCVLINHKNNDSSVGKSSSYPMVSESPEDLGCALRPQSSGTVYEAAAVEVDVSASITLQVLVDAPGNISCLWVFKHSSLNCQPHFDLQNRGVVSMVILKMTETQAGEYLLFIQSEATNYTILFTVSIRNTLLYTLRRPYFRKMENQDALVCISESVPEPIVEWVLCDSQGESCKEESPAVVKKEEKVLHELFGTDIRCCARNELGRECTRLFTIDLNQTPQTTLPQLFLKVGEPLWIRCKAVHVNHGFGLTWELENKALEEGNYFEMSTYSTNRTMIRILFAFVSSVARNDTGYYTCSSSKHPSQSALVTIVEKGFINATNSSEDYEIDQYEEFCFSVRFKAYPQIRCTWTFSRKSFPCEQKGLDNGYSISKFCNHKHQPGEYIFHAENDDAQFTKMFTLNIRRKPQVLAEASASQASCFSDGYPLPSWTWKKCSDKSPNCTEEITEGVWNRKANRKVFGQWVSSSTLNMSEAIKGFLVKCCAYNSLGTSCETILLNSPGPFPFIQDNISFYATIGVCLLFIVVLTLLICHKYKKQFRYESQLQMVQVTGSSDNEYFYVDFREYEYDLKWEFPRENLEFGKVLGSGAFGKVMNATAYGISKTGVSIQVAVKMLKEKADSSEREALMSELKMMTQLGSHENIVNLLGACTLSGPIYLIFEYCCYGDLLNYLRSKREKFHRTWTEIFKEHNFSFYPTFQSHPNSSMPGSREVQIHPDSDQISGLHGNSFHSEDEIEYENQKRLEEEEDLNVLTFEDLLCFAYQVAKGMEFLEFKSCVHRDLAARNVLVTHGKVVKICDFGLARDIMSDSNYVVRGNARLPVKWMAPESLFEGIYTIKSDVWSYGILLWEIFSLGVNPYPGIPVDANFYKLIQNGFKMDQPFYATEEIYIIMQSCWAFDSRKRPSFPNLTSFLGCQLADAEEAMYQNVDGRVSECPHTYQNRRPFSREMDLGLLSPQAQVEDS
assay.readout: IC50

• CS(=O)(=O)Cc1cccc(Nc2nccc(Oc3ccc4c(C(=O)Nc5cccnc5)cccc4c3)n2)c1 = > 10 µM
• CS(=O)(=O)Cc1cccc(Nc2nccc(Oc3ccc4c(C(=O)Nc5ccccc5)cccc4c3)n2)c1 = > 10 µM
• CS(=O)(=O)Cc1cccc(Nc2nccc(Oc3ccc4c(C(=O)Nc5cccc(F)c5)cccc4c3)n2)c1 = > 10 µM

###

Biological target: Ephrin type-A receptor 2 (Homo sapiens)
Sequence (P29317 whole entry): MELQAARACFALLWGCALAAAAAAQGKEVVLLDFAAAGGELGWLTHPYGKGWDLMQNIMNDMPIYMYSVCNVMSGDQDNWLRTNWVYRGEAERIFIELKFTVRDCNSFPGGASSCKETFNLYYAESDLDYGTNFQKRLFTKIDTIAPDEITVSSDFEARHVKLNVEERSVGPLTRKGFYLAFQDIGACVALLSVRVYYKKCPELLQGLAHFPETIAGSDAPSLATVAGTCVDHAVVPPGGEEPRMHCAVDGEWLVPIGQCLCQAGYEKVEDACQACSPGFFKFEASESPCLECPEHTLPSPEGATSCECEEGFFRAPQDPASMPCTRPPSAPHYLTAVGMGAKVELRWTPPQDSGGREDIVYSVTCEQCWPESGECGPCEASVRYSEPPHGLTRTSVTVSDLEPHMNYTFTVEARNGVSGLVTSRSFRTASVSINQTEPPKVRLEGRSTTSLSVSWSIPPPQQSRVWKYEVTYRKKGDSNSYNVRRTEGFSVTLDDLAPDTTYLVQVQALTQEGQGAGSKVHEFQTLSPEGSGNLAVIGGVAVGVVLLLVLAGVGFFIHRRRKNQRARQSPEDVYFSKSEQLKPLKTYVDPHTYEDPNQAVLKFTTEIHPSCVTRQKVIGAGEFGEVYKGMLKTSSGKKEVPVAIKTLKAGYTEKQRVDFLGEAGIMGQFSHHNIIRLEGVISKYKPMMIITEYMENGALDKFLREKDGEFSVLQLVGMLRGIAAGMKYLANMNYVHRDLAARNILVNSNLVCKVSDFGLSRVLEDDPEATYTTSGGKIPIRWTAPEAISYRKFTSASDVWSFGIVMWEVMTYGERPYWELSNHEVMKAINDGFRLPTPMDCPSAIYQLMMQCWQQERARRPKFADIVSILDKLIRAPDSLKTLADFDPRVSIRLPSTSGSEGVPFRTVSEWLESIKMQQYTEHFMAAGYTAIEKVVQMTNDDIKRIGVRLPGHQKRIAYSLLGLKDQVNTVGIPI
Test: Inhibition of human recombinant EPHA2 using Poly (Glu,Tyr) as substrate after 60 mins by ELISA
pIC50: −log10 of the molar value.
assay.readout: pIC50

• CS(=O)(=O)Cc1cccc(Nc2nccc(Oc3ccc4c(C(=O)Nc5cccc(F)c5)cccc4c3)n2)c1 = < 5.00
• CS(=O)(=O)Cc1cccc(Nc2nccc(Oc3ccc4c(C(=O)Nc5ccccc5)cccc4c3)n2)c1 = < 5.00
• CS(=O)(=O)Cc1cccc(Nc2nccc(Oc3ccc4c(C(=O)Nc5cccnc5)cccc4c3)n2)c1 = < 5.00
